Each record here notes measured GLP1R Internalization EC50.
experimental-target: human GLP-1R (SNAP-GLP-1R expressed in HEK293 cells) (human) (UniProt P43220)
Sequence (P43220 24-463): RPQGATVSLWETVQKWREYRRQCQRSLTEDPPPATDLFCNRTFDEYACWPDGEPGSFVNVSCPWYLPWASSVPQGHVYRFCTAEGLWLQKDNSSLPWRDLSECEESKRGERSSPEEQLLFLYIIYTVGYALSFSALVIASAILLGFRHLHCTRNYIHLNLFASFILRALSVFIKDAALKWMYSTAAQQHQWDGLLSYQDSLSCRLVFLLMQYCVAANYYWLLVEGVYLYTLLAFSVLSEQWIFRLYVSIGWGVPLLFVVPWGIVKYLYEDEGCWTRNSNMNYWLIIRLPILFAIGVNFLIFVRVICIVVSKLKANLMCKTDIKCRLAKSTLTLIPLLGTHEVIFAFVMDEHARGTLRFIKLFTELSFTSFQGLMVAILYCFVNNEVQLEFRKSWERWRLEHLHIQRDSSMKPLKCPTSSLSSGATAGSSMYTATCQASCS
assay-notes: cell-based or functional assay
Form entry: value (nM) — number only.

binder: YXQGTFTSDYSXXLDKKAQXAFIEYLLEGGESSGAPPPSGS (synthetic construct; SITE 2: note = 2-Aminoisobutyric Acid; SITE 12: note = L-ornithine; SITE 13: note = alpha-methyl-leucine; SITE 17: note = Lysine is chemically modified through conjugation of the epsilon-amino group of the Lysine side chain with (2-[2-(2-Amino-ethoxy)-ethoxy]-acetyl)-(gamma-Glu)) [Example 359]
GLP1R Internalization EC50, nM: 49.6

binder: YXQGTFTSDFSXXLDKKAQXAFIEWLLEGGTSSGAPPPSGT (synthetic construct; SITE 2: note = 2-Aminoisobutyric Acid; SITE 12: note = L-ornithine; SITE 13: note = alpha-methyl-leucine; SITE 17: note = Lysine is chemically modified through conjugation of the epsilon-amino group of the Lysine side chain with (2-[2-(2-Amino-ethoxy)-ethoxy]-acetyl)-(gamma-Glu)) [Example 177]
GLP1R Internalization EC50, nM: 79.4

binder: YXQGTFTSDXSXXLDKKAQXAFIEYLIEXGESSGAPPPSGS (synthetic construct; SITE 2: note = 2-Aminoisobutyric Acid; SITE 10: note = 3-(4-Pyridyl)-L-alanine; SITE 12: note = L-ornithine; SITE 13: note = alpha-methyl-leucine; SITE 17: note = Lysine is chemically modified through conjugation of the epsilon-amino group of the Lysine side chain with (2-[2-(2-) [Example 223]
GLP1R Internalization EC50, nM: 45.8

binder: YXQGTFTSDFSXXLDKKAQXAFIEYLLEAGPSSGEPPPSGQ (synthetic construct; SITE 2: note = 2-Aminoisobutyric Acid; SITE 12: note = L-ornithine; SITE 13: note = alpha-methyl-leucine; SITE 17: note = Lysine is chemically modified through conjugation of the epsilon-amino group of the Lysine side chain with (2-[2-(2-Amino-ethoxy)-ethoxy]-acetyl)2-(gamma-Glu)) [Example 157]
GLP1R Internalization EC50, nM: 60.3

binder: YXQGTFTSDXSRXLDKKAQXAFIEYLIEXGESSGAPPPSGE (synthetic construct; SITE 2: note = 2-Aminoisobutyric Acid; SITE 10: note = 3-(4-Pyridyl)-L-alanine; SITE 13: note = alpha-methyl-leucine; SITE 17: note = Lysine is chemically modified through conjugation of the epsilon-amino group of the Lysine side chain with (2-[2-(2-Amino-ethoxy)-ethoxy]-acetyl)) [Example 225]
GLP1R Internalization EC50, nM: 26

Let us move to another entry and its GLP1R Internalization EC50.
## Input Which value of GLP1R Internalization EC50 has been reported for YXQGTFTSDFSXXLDKKAQXAFIEYLLEAGPSSGEPPPSGS (synthetic construct; SITE 2: note = 2-Aminoisobutyric Acid; SITE 12: note = L-ornithine; SITE 13: note = alpha-methyl-leucine; SITE 17: note = Lysine is chemically modified through conjugation of the epsilon-amino group of the Lysine side chain with (2-[2-(2-Amino-ethoxy)-ethoxy]-acetyl)2-(gamma-Glu)) [Example 155] in the records?
## Output 85.1
